Tested on: WPMY1-GM130-SQSTM1
Protocol Description: phenotypically active (imaging signature differs from DMSO and reproducible) at any of 0.3-9 uM (binary (1 = active, 0 = inactive)); higher = active
Condition Label: treatment time: 24 h
Where a name gives a salt, the structure may show the parent alone.
Your reply should match one of these outcome classes. 1 = active, 0 = inactive

## Task Hi, sorry to bother you, what did the test record for Nc1ncnc(Nc2ccc(OCc3ccccc3)c(Cl)c2)c1/C=N/OCCN1CCOCC1 ?
## Result 0

## Task And what about the compound N=C(N)NN=Cc1c(Cl)cccc1Cl [guanabenz] ?
## Result 0

## Task Likewise for CCCC(CCC)C(=O)O [Valproic acid, sodium salt] ?
## Result 0

## Task Same lookup for CN1CCN(C(=O)CN[C@H]2C[C@@H]2c2ccc(OCc3ccccc3)cc2)CC1 [RN 1 dihydrochloride] , please.
## Result 1

## Task What about this compound? O=C(O)c1cc(/N=N/c2ccc(S(=O)(=O)Nc3ccccn3)cc2)ccc1O [Sulfasalazine]
## Result 0

## Task And for CN(C)c1ccc(/C=C2\C(=O)Nc3ccccc32)cc1 ?
## Result 1

## Task And CO[C@@H]1[C@H](N(C)C(=O)c2ccccc2)C[C@H]2O[C@]1(C)n1c3ccccc3c3c4c(c5c6ccccc6n2c5c31)C(=O)NC4 ?
## Result 1

---

System: A549-GM130-SQSTM1
Protocol Description: phenotypically active (imaging signature differs from DMSO and reproducible) at any of 0.3-9 uM (binary (1 = active, 0 = inactive)); higher = active
Condition Label: treatment time: 24 h
Result Type: phenotypically active
Give the figure by itself; no unit, no explanation.

## Task Given the entry S=C(S)N1CCCC1 [Pyrrolidinedithiocarbamate ammonium] , report its measured phenotypically active.
## Result 1

## Task What about CCC[C@H](N[C@@H](C)C(=O)N1[C@H](C(=O)O)C[C@@H]2CCCC[C@@H]21)C(=O)OCC ?
## Result 0

## Task Lookup O=S(=O)(NCCCCCCc1ccccc1)c1cccc2c(Cl)cccc12
## Result 0

## Task Then CCN1C(C)(C)CC(Oc2ccc(C(=O)Nc3ccc(NC(=O)Nc4cc(C(C)(C)C)on4)cc3)nc2)CC1(C)C ?
## Result 0

## Task COc1ccc2c(NC(=O)Nc3cccc(C(F)(F)F)n3)ccnc2c1 , same question.
## Result 1

---

Tested on: HepG2-TUBA1B-RELA
Protocol Description: lowest phenotypically active concentration; higher = less potent
Condition Label: treatment time: 24 h
Counter-ions that a name gives are not always drawn.
Exercise: for every item that follows, state its recorded lowest phenotypically active concentration.

## Task # lookup: lowest phenotypically active concentration of COc1cc2ncn(-c3cc(OCc4ccccc4C(F)(F)F)c(C(N)=O)s3)c2cc1OC
## Result ≤ 0.3 µM

## Task Here is the next compound: O=S(=O)(NCCCCCCc1ccccc1)c1cccc2c(Cl)cccc12
## Result ≤ 0.3 µM

## Task Same question for CON(C)C(=O)N1N=C(c2cc(F)ccc2F)S[C@@]1(CCCN)c1ccccc1 [ARRY 520 trifluoroacetate] please.
## Result ≤ 0.3 µM

## Task Quick one: COC(=O)Nc1nc2ccc(C(=O)c3cccs3)cc2[nH]1
## Result ≤ 0.3 µM

## Task Same for CCc1cccc(CC)c1NC(=O)N1Cc2[nH]nc(NC(=O)c3ccc(N4CCN(C)CC4)cc3)c2C1
## Result ≤ 0.3 µM

## Task Same again, this time with CC(=O)NCC(=O)N1[C@@H]2CC[C@H]1c1ccc(Nc3ncc(C(F)(F)F)c(NC4CCC4)n3)cc12
## Result ≤ 0.3 µM

## Task How about this compound: Cc1nc(Nc2ncc(C(=O)Nc3c(C)cccc3Cl)s2)cc(N2CCN(CCO)CC2)n1
## Result ≤ 0.3 µM

## Task How about CCC1(O)CC2CN(CCc3c([nH]c4ccccc34)C(C(=O)OC)(c3cc4c(cc3OC)N(C)C3C(O)(C(=O)OC)C(OC(C)=O)C5(CC)C=CCN6CCC43C65)C2)C1 (configuration not stated) [Vinblastine sulfate] ?
## Result ≤ 0.3 µM

## Task Then COc1ccc(N(C)c2nc(C)nc3ccccc23)cc1 [MPC 6827 hydrochloride] ?
## Result ≤ 0.3 µM

## Task Same lookup for Cc1ccc(-n2nc(C(C)(C)C)cc2NC(=O)Nc2ccc(OCCN3CCOCC3)c3ccccc23)cc1 , please.
## Result ≤ 0.3 µM

## Task What about this compound? COc1ccc2[nH]c(C(=O)c3ccccc3)cc2c1
## Result ≤ 0.3 µM

## Task Next entry: Cc1cc(Nc2ncc3c(n2)N(C)C(=O)N(c2cc(NC(=O)c4cccc(C(F)(F)F)c4)ccc2C)C3)n(C)n1
## Result ≤ 0.3 µM
